Data provenance is the supplement of paper PMC10065799.

Here the recorded phosphorylation enrichment is given for each entry.
System tested: Fes (UniProt P07332)
Sequence (P07332 whole entry, looked up): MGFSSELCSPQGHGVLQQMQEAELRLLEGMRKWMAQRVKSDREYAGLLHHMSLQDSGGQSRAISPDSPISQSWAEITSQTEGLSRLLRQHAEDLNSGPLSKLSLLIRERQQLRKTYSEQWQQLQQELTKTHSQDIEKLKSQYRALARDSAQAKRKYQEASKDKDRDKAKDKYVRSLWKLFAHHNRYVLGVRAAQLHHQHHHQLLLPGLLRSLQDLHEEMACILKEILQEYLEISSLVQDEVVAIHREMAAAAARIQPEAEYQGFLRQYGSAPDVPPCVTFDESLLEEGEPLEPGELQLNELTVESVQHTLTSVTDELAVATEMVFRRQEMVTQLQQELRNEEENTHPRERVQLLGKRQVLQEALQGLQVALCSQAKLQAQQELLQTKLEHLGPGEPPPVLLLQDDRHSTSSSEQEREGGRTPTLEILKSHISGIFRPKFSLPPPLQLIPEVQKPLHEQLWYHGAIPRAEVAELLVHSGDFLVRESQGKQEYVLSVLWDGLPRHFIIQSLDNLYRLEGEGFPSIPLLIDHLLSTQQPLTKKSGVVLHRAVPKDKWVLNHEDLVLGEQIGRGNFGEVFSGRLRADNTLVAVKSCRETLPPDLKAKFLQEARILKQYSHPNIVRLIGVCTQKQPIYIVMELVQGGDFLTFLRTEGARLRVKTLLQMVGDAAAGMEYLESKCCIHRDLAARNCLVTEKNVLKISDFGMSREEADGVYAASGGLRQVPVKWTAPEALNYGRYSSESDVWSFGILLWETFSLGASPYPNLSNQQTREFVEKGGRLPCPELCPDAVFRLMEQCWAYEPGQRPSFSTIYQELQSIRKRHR
Protocol details: phosphorylation enrichment, bacterial display (enrichment ratio); higher = better substrate or ligand; peptides without Tyr show the background;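 further: 11-residue human phosphosite peptides and single-mutation variants displayed on the E. coli surface, counted by deep sequencing, each peptide's frequency after selection divided by its frequency in the unselected input library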;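 further: frequency after pTyr selection over input frequency; kinase dosed for 20-30% of maximal phosphorylation in three min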
# print the numeric value only

Seq: KWHREYNSKYV [RICTOR_Y835]
System tested: Fes (UniProt P07332)
phosphorylation enrichment: 0.414

Seq: CTTVHYNYMCN [TP53_Y234_I232V]
System tested: Fes (UniProt P07332)
phosphorylation enrichment: 0.915

Seq: ELPQTYCVSGP [DYSF_Y1684_G1679E]
System tested: Fes (UniProt P07332)
phosphorylation enrichment: 0.816

Please report the recorded phosphorylation enrichment for AEPPDYSPVTQ [ADGRG2_Y285_H290Q] .
1.16

What about MSSHHYDYKKY [ZNF445_Y428] ?
0.513
